# Tested on: PRMT1 (protein arginine N-methyltransferase 1)
# assay: PRMT1 binders on small-molecule microarrays, primary screen, biochemical, small-molecule microarray, 635 nm fluorescence (AID 1088);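 also: binding of Prmt1 protein to compounds spotted on small-molecule microarray slides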
# stated conditions: small-molecule microarray binding, higher = more signal
experimental readout: composite z-score

Example cases with answers are listed next.
- COc1ccc([Si](C)(C)[C@@H]2[C@@H](CC(=O)N3Cc4ccccc4C[C@H]3CO)O[C@]3(C(=O)N(c4ccccc4)c4ccccc43)[C@H]2C)cc1: 1.41
- CN1C(=O)C2C=CC(C(O)c3cc(C(F)(F)F)cc(C(F)(F)F)c3)N(NC(=O)OC(C)(C)C)C2C1=O (configuration not stated): 1.56
- COCC1=C2[C@@H](CCc3ccccc3)OB(O)C[C@@H]2[C@@H]2C(=O)N(C)C(=O)[C@@H]2C1: -0.0522
- [N-]=[N+]=Nc1ccccc1C[C@@]1(C(=O)O)N=C(c2ccc(OCCCO)cc2)O[C@@H]1c1ccccc1N=[N+]=[N-]: 1.39
- COc1ccc([Si](C)(C)[C@H]2[C@H](CCO)O[C@@]3(C(=O)N(Cc4ccccc4)c4ccc(N5CCOC5=O)cc43)[C@@H]2C)cc1: 1.13
- O=C1C2C=CC(C(O)c3cc(C(F)(F)F)cc(C(F)(F)F)c3)N(Nc3ccccc3F)C2C(=O)N1c1ccccc1 (configuration not stated): 1.11
- CCOC(=O)C1=CCC(c2ccco2)N(S(=O)(=O)c2ccc(C)cc2)C1 (configuration not stated): 1.08
- COC(=O)[C@@]1(Cc2ccc(OC)cc2)[C@H]2c3cc(C(=O)N4CCCC4)n(Cc4ccc(S(C)(=O)=O)cc4)c3C[C@H]2CN1C(=O)c1ccccc1: -0.42

Attention now turns to another entry.
Would you kindly share the measured composite z-score for COCCCNC(=O)[C@@]1(Sc2ccc(C)cc2)CC(=O)N(Cc2ccccc2Cl)[C@@H]1c1ccc(CO)cc1I ?
-0.76
